Data provenance: ChEMBL document CHEMBL3727346

Biological target: Glycogen synthase kinase-3 beta splice variant X1 (Bos taurus, UniProt A0A059UE90)
Experiment: Inhibition of bovine cerebral TPK1 assessed as reduction in P-GS1 phosphorylation using [32gammaP]ATP incubated for 2 hrs by liquid scintillation counting method
assayEndpoint: IC50 (nM)

[
  {
    "compound": "CC(=O)N1CCC(Oc2ccc([C@H]3CN(c4nc(-c5ccncc5F)cc(=O)n4C)CCO3)cc2)CC1",
    "testedOn": "Glycogen synthase kinase-3 beta splice variant X1 (Bos taurus, UniProt A0A059UE90)",
    "assayEndpoint": "IC50",
    "dataValue": 6.4
  },
  {
    "compound": "Cn1c(N2CCO[C@@H](c3cc4ccccc4o3)C2)nc(-c2ccncc2F)cc1=O",
    "testedOn": "Glycogen synthase kinase-3 beta splice variant X1 (Bos taurus, UniProt A0A059UE90)",
    "assayEndpoint": "IC50",
    "dataValue": 7.9
  },
  {
    "compound": "Cc1nc(-c2ccc([C@H]3CN(c4nc(-c5ccncc5F)cc(=O)n4C)CCN3)cc2)no1",
    "testedOn": "Glycogen synthase kinase-3 beta splice variant X1 (Bos taurus, UniProt A0A059UE90)",
    "assayEndpoint": "IC50",
    "dataValue": 2.9
  },
  {
    "compound": "CN(C)C(=O)Nc1ccc([C@H]2CN(c3nc(-c4ccncc4F)cc(=O)n3C)CCO2)cc1",
    "testedOn": "Glycogen synthase kinase-3 beta splice variant X1 (Bos taurus, UniProt A0A059UE90)",
    "assayEndpoint": "IC50",
    "dataValue": 11
  }
]

P = Cn1c(N2CCN[C@@H](c3ccc(-c4ncon4)cc3)C2)nc(-c2ccncc2F)cc1=O
Q = Cn1c(N2CCOC(c3ccc4c(c3)CCC(=O)N4)C2)nc(-c2ccncc2F)cc1=O (racemic)
Incoming: Could you please tell me which of these two has the higher IC50: P or Q ? Kindly state the label of the option you pick.
Outgoing: P
(P: 4.8 nM, Q: 1.2 nM)

P = Cn1c(N2CCO[C@@H](c3ccc(NC(=O)C4CCCCC4)cc3)C2)nc(-c2ccncc2F)cc1=O
Q = Cn1c(N2CCO[C@@H](c3ccc(NC(=O)C(C)(C)C)cc3)C2)nc(-c2ccncc2F)cc1=O
Incoming: Pick one, P or Q : lowest reported IC50. Please identify the chosen entry by its label.
Outgoing: P

* * *

Target: Glycogen synthase kinase-3 beta splice variant X1 (Bos taurus)
Assay: Inhibition of bovine cerebral TPK1 assessed as reduction in P-GS1 phosphorylation using [32gammaP]ATP incubated for 2 hrs by liquid scintillation counting method
Active and inactive are the calls of the source. How the calls were made is not given here.
assayEndpoint: inhibition

[
  {
    "lineNotation": "COc1ccc(-c2ccc([C@H]3CN(c4nc(-c5ccncc5F)cc(=O)n4C)CCN3)cc2)c(OC)c1",
    "inhibition": "Active"
  },
  {
    "lineNotation": "COc1ccc(C#N)cc1[C@H]1CN(c2nc(-c3ccncc3F)c(F)c(=O)n2C)CCO1",
    "inhibition": "Active"
  },
  {
    "lineNotation": "Cn1c(N2CCO[C@@H](c3ccc(NC4CCCC4)cc3)C2)nc(-c2ccncc2F)cc1=O",
    "inhibition": "Active"
  },
  {
    "lineNotation": "Cn1c(N2CCO[C@@H](c3ccc(N4CCCNC4=O)cc3)C2)nc(-c2ccncc2F)cc1=O",
    "inhibition": "Active"
  },
  {
    "lineNotation": "Cn1c(N2CCN[C@@H](c3ccc(-c4ccc(Cl)cc4)cc3)C2)nc(-c2ccncc2F)cc1=O",
    "inhibition": "Active"
  }
]

Incoming: Entry CN1CCC(Oc2ccc([C@H]3CN(c4nc(-c5ccncc5F)cc(=O)n4C)CCO3)cc2)CC1 needs its inhibition filled in; supply it.
Outgoing: Active

Incoming: Please look at this compound and report its inhibition: CN(C)[C@@H]1CCN(c2ccc([C@H]3CN(c4nc(-c5ccncc5F)cc(=O)n4C)CCN3)cc2)C1
Outgoing: Active

Incoming: Consider the compound Cn1c(N2CCN[C@@H](c3ccc(-c4ccc(OCC5CC5)cc4)cc3)C2)nc(-c2ccncc2F)cc1=O . State its measured inhibition.
Outgoing: Active

Incoming: Return inhibition for the following compound: Cn1c(N2CCO[C@@H](c3ccc(OCCN4CCN(C(=O)c5ccccc5)CC4)cc3)C2)nc(-c2ccncc2F)cc1=O
Outgoing: Active

Incoming: Please indicate inhibition recorded for Cn1c(N2CCO[C@@H](c3ccc(N4CCCC4)cc3)C2)nc(-c2ccncc2F)cc1=O
Outgoing: Active

Incoming: Supply inhibition value. Item: Cn1c(N2CCO[C@@H](c3ccc(CN4CCOCC4)cc3)C2)nc(-c2ccncc2F)cc1=O
Outgoing: Active

Incoming: // fetch inhibition given entry C[C@@H]1CN(c2ccc([C@H]3CN(c4nc(-c5ccncc5F)cc(=O)n4C)CCO3)cc2)C[C@H](C)N1
Outgoing: Active

Incoming: Determine its reported inhibition: CCc1nc(-c2ccc([C@H]3CN(c4nc(-c5ccncc5F)cc(=O)n4C)CCN3)cc2)no1
Outgoing: Active

Incoming: Quote inhibition reported for C[C@@H]1CN(c2ccc([C@H]3CN(c4nc(-c5ccncc5F)cc(=O)n4C)CCN3)cc2)C[C@H](C)N1 please.
Outgoing: Active

Incoming: Provide measured inhibition value, entry: Cn1c(N2CCO[C@@H](c3ccc(Nc4ccncc4)cc3)C2)nc(-c2ccncc2F)cc1=O
Outgoing: Active

Incoming: For the compound Cn1c(N2CCO[C@@H](c3ccc(NC(=O)N4CCOCC4)cc3)C2)nc(-c2ccncc2F)cc1=O , report inhibition.
Outgoing: Active

Incoming: Find the measured inhibition of Cn1c(N2CCO[C@@H](c3ccc(NC(=O)CN4CCCCC4)cc3)C2)nc(-c2ccncc2F)cc1=O and report it.
Outgoing: Active
